Tested on: OVCAR-5 complex spheroids with HUVEC/MSC, viability, % test/control
assay-notes: Anticancer human tumor OVCAR-5 cell line growth inhibition [AhR];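 note: spheroids exposed to compounds for 7 days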;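 for viability, T/C: 100% = DMSO vehicle control wells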
stated-conditions: second compound 3.16 µM; first compound 0.316 µM; stronger effect = lower value
measured-property: viability, T/C

1) CC1COCCN1c1cc(C2(S(C)(=N)=O)CC2)nc(-c2ccnc3[nH]ccc23)n1 (stereo unspecified) + Cc1cncc(-c2nc(NCCc3c[nH]c4ccccc34)c3ncn(C(C)C)c3n2)c1 = 80.5%
2) CC1COCCN1c1cc(C2(S(C)(=N)=O)CC2)nc(-c2ccnc3[nH]ccc23)n1 (stereo unspecified) + Cc1ccccc1N=Nc1ccc(NC(=O)c2ccnn2C)c(C)c1 = 116%
3) O=C(C=Cc1cccc(S(=O)(=O)Nc2ccccc2)c1)NO + Cc1ccccc1N=Nc1ccc(NC(=O)c2ccnn2C)c(C)c1 = 81%
4) COc1ccc([C@@H](O)c2cc(-c3ncnc4cc(N5CCOCC5)ccc34)c(F)cc2Cl)nn1 + CC(CO)NC(=O)c1cc(-c2ccc(Cl)cc2)nn(-c2cnn(C)c2)c1=O = 87.3%
5) COc1cccc2c1C(=O)c1c(O)c3c(c(O)c1C2=O)CC(O)(C(=O)CO)CC3OC1CC(N)C(O)C(C)O1 (stereo unspecified) + Cc1cncc(-c2nc(NCCc3c[nH]c4ccccc34)c3ncn(C(C)C)c3n2)c1 = 39.3%
6) NS(=O)(=O)OCC1CC(n2ccc3c(NC4CCc5ccccc54)ncnc32)CC1O (stereo unspecified) + Cc1ccccc1N=Nc1ccc(NC(=O)c2ccnn2C)c(C)c1 = 32.2%

###

Tested on: OVCAR-5 complex spheroids with HUVEC/MSC, viability, % test/control
assay-notes: Anticancer human tumor OVCAR-5 cell line growth inhibition [AhR];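 note: spheroids exposed to compounds for 7 days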;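 for viability, T/C: 100% = DMSO vehicle control wells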
stated-conditions: second compound 3.16 µM; first compound 0.0316 µM; stronger effect = lower value
measured-property: viability, T/C

1. CC[C@@]1(O)C(=O)OCc2c1cc1n(c2=O)Cc2cc3c(CN(C)C)c(O)ccc3nc2-1 + CC(CO)NC(=O)c1cc(-c2ccc(Cl)cc2)nn(-c2cnn(C)c2)c1=O = 52.9%
2. O=C(c1cc(Cc2n[nH]c(=O)c3ccccc23)ccc1F)N1CCN(C(=O)C2CC2)CC1 + Cc1ccccc1N=Nc1ccc(NC(=O)c2ccnn2C)c(C)c1 = 111%
3. CC[C@@]1(O)C(=O)OCc2c1cc1n(c2=O)Cc2cc3c(CN(C)C)c(O)ccc3nc2-1 + Cc1ccccc1N=Nc1ccc(NC(=O)c2ccnn2C)c(C)c1 = 41%
4. CC(C)c1c(-c2ccccc2)nc2c(C#N)c[nH]n2c1=O + Cc1cncc(-c2nc(NCCc3c[nH]c4ccccc34)c3ncn(C(C)C)c3n2)c1 = 81.5%
5. Cn1ncnc1C1c2n[nH]c(=O)c3cc(F)cc(c23)NC1c1ccc(F)cc1 (stereo unspecified) + Cc1ccccc1N=Nc1ccc(NC(=O)c2ccnn2C)c(C)c1 = 101%
6. COc1cc(Nc2ncc3c(n2)-c2ccc(Cl)cc2C(c2c(F)cccc2OC)=NC3)ccc1C(=O)O + CC(CO)NC(=O)c1cc(-c2ccc(Cl)cc2)nn(-c2cnn(C)c2)c1=O = 79.4%

###

The reader will find reported pIC50 values listed item by item below.
Tested on: OVCAR-5 complex spheroids with HUVEC/MSC, viability, % test/control
assay-notes: Anticancer human tumor OVCAR-5 cell line growth inhibition [AhR];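 note: spheroids exposed to compounds for 7 days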
stated-conditions: curve of first compound; second compound 1 µM
From the text: Multicellular complex tumor spheroid response to aryl hydrocarbon receptor antagonists in combination with a variety of drugs and investigational agents in selected tumor cell lines […] Compounds. […] If the clinical Cmax for an agent had not been determined, the highest concentration tested was 10 microM (Table 1). […]
pIC50: −log10 of the molar value.
measured-property: pIC50

1) COc1cc(Nc2ncc3c(n2)-c2ccc(Cl)cc2C(c2c(F)cccc2OC)=NC3)ccc1C(=O)O + Cc1ccccc1N=Nc1ccc(NC(=O)c2ccnn2C)c(C)c1 = 5.30
2) CC1COCCN1c1cc(-c2ccnn2C)c2ccnc(-c3ccn[nH]3)c2n1 (configuration not stated) + CC(CO)NC(=O)c1cc(-c2ccc(Cl)cc2)nn(-c2cnn(C)c2)c1=O = 6.53
3) COc1ccc([C@@H](O)c2cc(-c3ncnc4cc(N5CCOCC5)ccc34)c(F)cc2Cl)nn1 + Cc1cncc(-c2nc(NCCc3c[nH]c4ccccc34)c3ncn(C(C)C)c3n2)c1 = 5.56
4) COc1cccc2c1C(=O)c1c(O)c3c(c(O)c1C2=O)CC(O)(C(=O)CO)CC3OC1CC(N)C(O)C(C)O1 (configuration not stated) + Cc1ccccc1N=Nc1ccc(NC(=O)c2ccnn2C)c(C)c1 = 6.64
5) CC1COCCN1c1cc(-c2ccnn2C)c2ccnc(-c3ccn[nH]3)c2n1 (configuration not stated) + Cc1ccccc1N=Nc1ccc(NC(=O)c2ccnn2C)c(C)c1 = 6.55
6) NS(=O)(=O)OCC1CC(n2ccc3c(NC4CCc5ccccc54)ncnc32)CC1O (configuration not stated) + Cc1cncc(-c2nc(NCCc3c[nH]c4ccccc34)c3ncn(C(C)C)c3n2)c1 = 7.04
7) CC(C)CC(NC(=O)C(Cc1ccccc1)NC(=O)c1cnccn1)B(O)O (configuration not stated) + Cc1ccccc1N=Nc1ccc(NC(=O)c2ccnn2C)c(C)c1 = 7.30

This collection of values is drawn from PubChem BioAssay AID1919015.
